- testSummary: NCI Yeast Anticancer Drug Screen. Data for the rad50 strain (AID 155);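 note: 0% = growth of vehicle-only cultures of the same strain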
- experimentalContext: S. cerevisiae rad50 strain growth inhibition; at 5.0 µM (retest, dose inferred, filed as 0.5); stronger effect = higher value
Compounds without any hit were thinned out: in the full panel of roughly 79,000, 15% have a hit.

{"compound": "OC1c2cc(Cl)cc(Cl)c2OC2(N3CCCC3)CCCCC12 (stereo not drawn)", "u": "%", "growth inhibition": 62}
{"compound": "CC12CCc3ccccc3C1=Nc1ccccc12 (stereo not drawn)", "u": "%", "growth inhibition": -3}
{"compound": "CN(C)CCNC(=O)c1cccc2ccc(-c3ccc(-c4ccccc4)cc3)nc12", "u": "%", "growth inhibition": 4}
{"compound": "Nc1nc(-c2ccccc2)cc(-c2ccccc2O)n1", "u": "%", "growth inhibition": 7}
{"compound": "Cc1ccc(C)c(N2C/C(=N\\NC(=O)CC#N)C(c3nc4ccccc4s3)C(=O)C2=O)c1 (stereo not drawn)", "u": "%", "growth inhibition": 0}
{"compound": "CCCCCCOC(=O)CCC(=O)OCCCCCC", "u": "%", "growth inhibition": -7}
{"compound": "CC(=O)c1cccc(NC(=O)C(=O)NNc2n[nH]c(=S)n2N)c1", "u": "%", "growth inhibition": 16}
{"compound": "Nc1nnc2nc(C(C(=O)c3ccccc3Cl)c3nc4nnc(N)n4[nH]c3=O)c(=O)[nH]n12", "u": "%", "growth inhibition": -2}
{"compound": "COc1ccc2c(C)c(N=C=S)c(=O)oc2c1", "u": "%", "growth inhibition": 35}
{"compound": "O=S1(=O)c2ccccc2C(=NO)c2ccccc21", "u": "%", "growth inhibition": -5}
{"compound": "CC(C)(c1ccc(OC#N)cc1)c1ccc(OC#N)cc1", "u": "%", "growth inhibition": 21}
{"compound": "O=C(/C=C/c1ccc([N+](=O)[O-])o1)N1CCN(Cc2ccccc2)CC1", "u": "%", "growth inhibition": 38}
{"compound": "S=c1[nH]c2c(-c3ccccc3)cccc2s1", "u": "%", "growth inhibition": -4}
{"compound": "Cc1ccc(S(=O)(=O)NNC2Oc3cc4c(cc3C(c3ccccc3O)C2C)OCO4)cc1 (stereo not drawn)", "u": "%", "growth inhibition": -12}
{"compound": "N#C/C(=C/c1cc(I)cc(I)c1O)C(N)=O", "u": "%", "growth inhibition": 42}
{"compound": "O=S(=O)(CC(Br)Br)c1ccccc1", "u": "%", "growth inhibition": 13}
{"compound": "CCCCCCCCCCCCCCCCCC[N+]1(CC)CCCCC1", "u": "%", "growth inhibition": 99}
{"compound": "O=C(c1ccccc1)C(Cl)c1ccccc1 (stereo not drawn)", "u": "%", "growth inhibition": 9}
